# System Tested: tPA (recombinant) (Homo sapiens)
# Construct: purchased Nodia
# Sequence (P00750 36-562, species assumed): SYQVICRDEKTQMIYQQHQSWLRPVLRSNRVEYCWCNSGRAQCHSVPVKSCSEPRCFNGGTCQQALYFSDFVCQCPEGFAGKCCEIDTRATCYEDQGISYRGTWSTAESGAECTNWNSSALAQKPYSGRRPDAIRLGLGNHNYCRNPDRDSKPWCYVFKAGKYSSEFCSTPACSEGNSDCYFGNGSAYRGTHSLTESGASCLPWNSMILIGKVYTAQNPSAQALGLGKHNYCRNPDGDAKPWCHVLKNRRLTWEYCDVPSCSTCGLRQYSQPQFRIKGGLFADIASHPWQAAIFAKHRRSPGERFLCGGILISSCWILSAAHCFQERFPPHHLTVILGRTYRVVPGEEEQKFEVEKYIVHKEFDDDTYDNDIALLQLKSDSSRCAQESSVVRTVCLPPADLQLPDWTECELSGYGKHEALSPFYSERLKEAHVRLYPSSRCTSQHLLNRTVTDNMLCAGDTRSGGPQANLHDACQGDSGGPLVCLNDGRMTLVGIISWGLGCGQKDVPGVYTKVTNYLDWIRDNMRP
# Assay Name: tPA inhibition, chromogenic substrate Biophen CS-05(88)
# Type: biochemical
# Condition Notes: Tris buffer pH 8.3; read-out: IC50 tPA
pIC50: −log10 of the molar value.

{"Molecule": "N=C(N)Nc1ccc(C(NS(=O)(=O)c2ccccc2)P(=O)(Oc2ccccc2)Oc2ccccc2)cc1 (centres unmarked)", "System Tested": "tPA (recombinant) (Homo sapiens)", "pIC50": "5.00 to 5.60"}
{"Molecule": "N=C(N)Nc1ccc(C(NC(=O)OCCOc2ccccc2)P(=O)(Oc2ccccc2)Oc2ccccc2)cc1.O=C(O)C(F)(F)F (centres unmarked) [Compound 30, 2,2,2-trifluoroacetate]", "System Tested": "tPA (recombinant) (Homo sapiens)", "pIC50": "< 3.60"}
{"Molecule": "C#CCOCCOCCOC(=O)NC(Cc1ccc(NC(=N)N)cc1)P(=O)(Oc1ccccc1)Oc1ccccc1 (centres unmarked) [UPA2, reference compound]", "System Tested": "tPA (recombinant) (Homo sapiens)", "pIC50": "< 3.60"}
{"Molecule": "COCCOCCOC(=O)NC(c1ccc(NC(=N)N)cc1)P(=O)(Oc1ccccc1)Oc1ccccc1.O=C(O)C(F)(F)F (centres unmarked) [Compound 28, 2,2,2-trifluoroacetate]", "System Tested": "tPA (recombinant) (Homo sapiens)", "pIC50": "< 3.60"}
{"Molecule": "CCN(CC)c1ccc2c(-c3ccccc3C(=O)N3CCN(C(=O)CCCCCCCn4cc(COCCOCCOC(=O)NC(c5ccc(NC(=N)N)cc5)P(=O)(Oc5ccccc5)Oc5ccccc5)nn4)CC3)c3ccc(=[N+](CC)CC)cc-3oc2c1 (centres unmarked)", "System Tested": "tPA (recombinant) (Homo sapiens)", "pIC50": "< 3.60"}

Origin of measurements: patent US10017527B2
